# Tested on: TtdR/P_H16_RS10665 tartrate biosensor (pEH083)
# assayComment: relative induction of RFP reporter vs primary effector (background-corrected); higher = stronger activation of the biosensor;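 further: RFP excited at 585 nm with emission read at 620 nm, culture medium blanks subtracted from fluorescence and absorbance prior to normalisation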
# conditionContext: inducer concentration 5 mM; 6 h; Cupriavidus necator H16; minimal medium + 0.4% gluconate
Below, each of the compounds is paired with its reported relative induction of RFP reporter value.
Quick note: give the figure in %, leave out the unit.

Before answering, review these 4 worked examples.
{"compound": "C[C@H](O)C(=O)O [L-lactate]", "assayMetric": "relative induction of RFP reporter", "numericResult": 0.33}
{"compound": "NCCS(=O)(=O)O [taurine]", "assayMetric": "relative induction of RFP reporter", "numericResult": 0.0679}
{"compound": "O=C(O)C1=C[C@@H](O)[C@@H](O)[C@H](O)C1 [shikimate]", "assayMetric": "relative induction of RFP reporter", "numericResult": -0.0735}
{"compound": "NCCc1ccc(O)c(O)c1 [dopamine]", "assayMetric": "relative induction of RFP reporter", "numericResult": 1.41}

Problem: relative induction of RFP reporter lookup needed for O=C(O)C[C@H](O)C(=O)O [L-malate] , thanks.
Solution: 1.58

* * *

# System: XdhR/P_H16_RS05055 xanthine biosensor (pEH154)
# assayComment: relative induction of RFP reporter vs primary effector (background-corrected); higher = stronger activation of the biosensor
# conditionContext: inducer concentration 5 mM; 6 h; Cupriavidus necator H16; minimal medium + 0.4% gluconate
assayMetric: relative induction of RFP reporter (%)
Only the number, expressed in %, is required.

{"compound": "O=c1[nH]cnc2nc[nH]c12", "assayMetric": "relative induction of RFP reporter", "numericResult": 166}
{"compound": "O=C(O)C1=CCCCC1 [cyclohexene-1-carboxylate]", "assayMetric": "relative induction of RFP reporter", "numericResult": 0.161}
{"compound": "O=C(O)C[C@H](O)C(=O)O [L-malate]", "assayMetric": "relative induction of RFP reporter", "numericResult": 0.88}
{"compound": "CCCC(=O)O", "assayMetric": "relative induction of RFP reporter", "numericResult": -0.758}
{"compound": "O=C(O)C1CCCC1 [cyclopentane-1-carboxylate]", "assayMetric": "relative induction of RFP reporter", "numericResult": 0.428}
{"compound": "Oc1ccc(O)cc1 [hydroquinone]", "assayMetric": "relative induction of RFP reporter", "numericResult": 0.708}
{"compound": "OC[C@@H](O)[C@@H](O)[C@H](O)[C@H](O)CO", "assayMetric": "relative induction of RFP reporter", "numericResult": -0.267}
{"compound": "NCCc1ccc(O)c(O)c1", "assayMetric": "relative induction of RFP reporter", "numericResult": 0.0292}
{"compound": "N[C@@H](Cc1c[nH]c2ccccc12)C(=O)O", "assayMetric": "relative induction of RFP reporter", "numericResult": -0.684}
{"compound": "N[C@@H](CC(=O)O)C(=O)O [L-aspartate]", "assayMetric": "relative induction of RFP reporter", "numericResult": -0.175}

Problem: Please look up its relative induction of RFP reporter: O=C(O)CC(CC(=O)O)C(=O)O [tricarballylate]
Solution: -1.15

Problem: Need relative induction of RFP reporter, item O=S(=O)(O)CCO [isethionate]
Solution: -0.627

Problem: # get_value(readout='relative induction of RFP reporter', item= "O=C(O)C(O)C(=O)O" )
Solution: -0.218

Problem: What does the data say about its relative induction of RFP reporter? Entry: CC(N)CC(=O)O (stereo not drawn) [3-aminobutanoate]
Solution: 0.412

Problem: # lookup: relative induction of RFP reporter of NC(C(=O)O)c1ccccc1 (racemic)
Solution: 0.377

Problem: // query relative induction of RFP reporter value for entry "Oc1ccccc1"
Solution: -0.78

Problem: relative induction of RFP reporter lookup needed for O=C(O)CCC(=O)O [succinate] , thanks.
Solution: 0.357

Problem: May I ask what relative induction of RFP reporter has been recorded for "NCCS(=O)(=O)O" ?
Solution: -0.494

* * *

# System: heterologous inducible system pEH002 (rhamnose/acrylate/cumate/itaconate set)
# assayComment: relative induction of RFP reporter vs primary effector (background-corrected); higher = stronger activation of the biosensor
# conditionContext: inducer concentration 5 mM; 6 h; Cupriavidus necator H16; minimal medium + 0.4% gluconate
assayMetric: relative induction of RFP reporter (%)
Only the number, expressed in %, is required.

Worked examples, 2 compounds total:
{"compound": "OC[C@@H](O)[C@@H](O)[C@H](O)[C@H](O)CO", "relative induction of RFP reporter, %": -0.000622}
{"compound": "O=C(O)CNC(=O)c1ccccc1", "relative induction of RFP reporter, %": -0.00397}

Switching to the query record.
Problem: Endpoint output: relative induction of RFP reporter of O=C(O)[C@@H](O)[C@@H](O)[C@H](O)[C@@H](O)C(=O)O [glucarate] . Value?
Solution: 0.0271

* * *

# System: heterologous inducible system pEH002 (rhamnose/acrylate/cumate/itaconate set)
# assayComment: relative induction of RFP reporter vs primary effector (background-corrected); higher = stronger activation of the biosensor
# conditionContext: inducer concentration 5 mM; 6 h; Cupriavidus necator H16; minimal medium + 0.4% gluconate
The entries below come with measured relative induction of RFP reporter values attached.

{"molecule": "C[C@@H](O)C(=O)O [D-lactate]", "relative induction of RFP reporter": "0.0109%"}

Problem: Reported relative induction of RFP reporter, molecule "Oc1cccc(O)c1" : ____
Solution: -0.00943%

* * *

# Tested on: SauR/P_H16_RS13695 sulfonatoacetate biosensor (pEH157)
# assayComment: relative induction of RFP reporter vs primary effector (background-corrected); higher = stronger activation of the biosensor
# conditionContext: inducer concentration 5 mM; 6 h; Cupriavidus necator H16; minimal medium + 0.4% gluconate
The entries below are paired with their reported relative induction of RFP reporter.
Write down the numeric answer in % and omit the unit.

In the examples that follow, each entry is paired with its recorded relative induction of RFP reporter.
{"compound": "CCCC(=O)O", "relative induction of RFP reporter [%]": 0.0337}
{"compound": "CCC(=O)O [propanoate]", "relative induction of RFP reporter [%]": 0.0421}
{"compound": "NCCS(=O)(=O)O", "relative induction of RFP reporter [%]": 2.29}
{"compound": "O=C(O)c1cc(=O)c2ccccc2[nH]1 [kynurenate]", "relative induction of RFP reporter [%]": 0.00396}
{"compound": "O=C(O)CCC(=O)O [succinate]", "relative induction of RFP reporter [%]": -0.0135}

Problem: Notebook entry, SauR/P_H16_RS13695 sulfonatoacetate biosensor (pEH157) assay: relative induction of RFP reporter of "O=c1[nH]cnc2nc[nH]c12" = ?
Solution: 0.0689

Problem: Look up relative induction of RFP reporter with SauR/P_H16_RS13695 sulfonatoacetate biosensor (pEH157) for this compound: "Cn1c(=O)c2c(ncn2C)n(C)c1=O"
Solution: 0.0139

Problem: Hello, I am looking for reported relative induction of RFP reporter with SauR/P_H16_RS13695 sulfonatoacetate biosensor (pEH157) for O=C(O)CC(CC(=O)O)C(=O)O [tricarballylate] . Could you help?
Solution: 0.0103

Problem: Missing value: relative induction of RFP reporter, SauR/P_H16_RS13695 sulfonatoacetate biosensor (pEH157), entry O=C(O)c1c(O)cccc1O [2,6-dihydroxybenzoate] . Fill in?
Solution: 0.0103

Problem: Give the reported relative induction of RFP reporter for "CC(=O)CCC(=O)O" (system: SauR/P_H16_RS13695 sulfonatoacetate biosensor (pEH157)).
Solution: -0.0306

* * *

The entries below are paired with their reported relative induction of RFP reporter.
# System: KynR/P_H16_RS14030 L-kynurenine biosensor (pEH136)
# assayComment: relative induction of RFP reporter vs primary effector (background-corrected); higher = stronger activation of the biosensor
# conditionContext: inducer concentration 5 mM; 6 h; Cupriavidus necator H16; minimal medium + 0.4% gluconate
Report as a plain number; the unit % is understood.

Consider the reported relative induction of RFP reporter for these compounds:
{"compound": "Oc1cccc(O)c1 [resorcinol]", "numericResult": -0.206}
{"compound": "O=C(O)C1=CCCCC1 [cyclohexene-1-carboxylate]", "numericResult": 0.423}
{"compound": "NC(C(=O)O)c1ccccc1 (racemic) [D,L-2-phenylglycine]", "numericResult": -0.416}
{"compound": "Cn1cnc2c1c(=O)[nH]c(=O)n2C [theobromine]", "numericResult": 1.51}
{"compound": "Oc1ccccc1O [catechol]", "numericResult": 0.704}

Problem: What value of relative induction of RFP reporter has been reported for the following compound? O=C(O)c1c(O)cccc1O [2,6-dihydroxybenzoate]
Solution: 0.406

Problem: Query: relative induction of RFP reporter; subject: O=C(O)C(O)C(=O)O [tartronic acid]
Solution: 0.115

Problem: Entry O=C(O)c1ccc(O)cc1 [4-hydroxybenzoate] has what relative induction of RFP reporter?
Solution: -0.184

Problem: Need relative induction of RFP reporter, item N[C@@H](CC(=O)O)C(=O)O [L-aspartate]
Solution: -0.00294
